What pIC50 was measured for each of the following?
target-or-test-system: Syk kinase (Homo sapiens)
Construct: purchased
protocol-text: Syk kinase inhibition, Caliper LabChip off-chip mobility-shift kinase assay
Assay type: biochemical
reported-conditions: read-out: Syk Enzyme IC50
Answers are plain numbers, as −log10 of the molar value.

Here is how some molecules turned out for pIC50.
molecule=CCN1CCN(CCc2ccc(Nc3nc(Nc4ccc(C(=O)O)cn4)cc4cc[nH]c(=O)c34)cc2)CC1 measured=7.80
molecule=COc1cncc(-c2cc3cc[nH]c(=O)c3c(Nc3ccc(C4CCN(CCC(C)(C)C)CC4)c(C)c3)n2)n1 measured=6.80
molecule=Cn1ccc2cc(Nc3cnccn3)nc(Nc3cccc(S(C)(=O)=O)c3)c2c1=O measured=6.12
molecule=O=c1c2c(N[C@H]3CCOC3)nc(Nc3cnccn3)cc2ccn1CCO measured=7.85
molecule=COCCCN1CCC(c2ccc(Nc3nc(-c4cnc(OC)nc4)cc4cc[nH]c(=O)c34)cc2F)CC1 measured=7.23

Batch lookup, pIC50 per entry.
1. CCCNC(=O)c1ccc(Nc2cc3ccn(C)c(=O)c3c(N)n2)nc1
2. Cc1ccnc(Nc2cc3cc[nH]c(=O)c3c(NC(C)CC(C)C)n2)c1 (stereo not shown)
3. CCN1CCN(Cc2n[nH]c3cc(Nc4nc(-c5cnc(OC)nc5)cc5cc[nH]c(=O)c45)ccc23)CC1
4. Cc1cc(Nc2cc3ccn(CCO)c(=O)c3c(NC(C)(C)CO)n2)ncc1Cl

1. 5.58
2. 5.16
3. 7.32
4. 6.95

Batch lookup, pIC50 per entry.
1. Cc1ccnc(Nc2cc3cc[nH]c(=O)c3c(NC3CCN(Cc4ccccc4)C3)n2)c1 (stereo not shown)
2. Cc1ccnc(Nc2cc3ccn(C)c(=O)c3c(NCC(F)(F)F)n2)c1
3. CCN1CCN(CCc2ccc(Nc3nc(-c4cnn(C)c4)cc4cc[nH]c(=O)c34)cc2)CC1
4. CCn1ccc2cc(Nc3cc(C)ccn3)nc(N[C@H]3CCCC[C@@H]3O)c2c1=O (racemic)
5. Cc1cc(Nc2nc(Nc3cc(CO)ccn3)cc3cc[nH]c(=O)c23)ccc1C1CCN(C2CC2)CC1
6. Cc1ccnc(Nc2cc3ccn(C)c(=O)c3c(Nc3ccc(C(=O)N4CCOCC4)cc3)n2)c1

[6.26, 6.67, 7.24, 6.32, 7.31, 7.16]

pIC50 lookup needed for COc1nc(-c2cc3cc[nH]c(=O)c3c(Nc3ccc(C4CCN(CCC#N)CC4)cc3)n2)cnc1N , thanks.
7.70

---

target-or-test-system: Syk kinase (Homo sapiens, UniProt P43405)
Construct: purchased
protocol-text: Syk kinase inhibition, Caliper LabChip off-chip mobility-shift kinase assay
Assay type: biochemical
reported-conditions: read-out: Syk Enzyme IC50
pIC50: −log10 of the molar value.
Given measured pIC50, output MET if it is greater than or equal to 7 and NOT MET if not.

Solved cases (6 shown):
molecule=O=c1[nH]ccc2cc(Nc3cc(CO)ccn3)nc(NC3CC3)c12 class_label=MET
molecule=COCCN1CCN(c2n[nH]c3cc(Nc4nc(-c5cncnc5)cc5cc[nH]c(=O)c45)ccc23)CC1 class_label=MET
molecule=CCn1ccc2cc(Nc3cc(C)ccn3)nc(N[C@H]3CC[C@@H](O)CC3)c2c1=O class_label=MET
molecule="CC(CO)Nc1nc(-c2cnc(N)nc2)cc2cc[nH]c(=O)c12 (stereo not shown)" class_label="NOT MET"
molecule="Cc1cc(Nc2nc(C(C)O)cc3cc[nH]c(=O)c23)ccc1C1CCNCC1 (stereo not shown)" class_label=MET
molecule=COc1cncc(-c2cc3cc[nH]c(=O)c3c(Nc3ccc(C4CN(CCS(C)(=O)=O)C4)cc3)n2)n1 class_label=MET

Is pIC50 at least 7? Consider Cc1ccnc(Nc2cc3cc[nH]c(=O)c3c(NC3CCC3)n2)c1
MET

Is pIC50 at least 7? Consider CCn1ccc2cc(Nc3cc(C)ccn3)nc(NC(C)C)c2c1=O
NOT MET

Is pIC50 at least 7? Consider CN1CCN(C2CCC(c3ccc(Nc4nc(-c5cncnc5)cc5cc[nH]c(=O)c45)cc3)CC2)CC1 (stereo not shown)
MET

Is pIC50 at least 7? Consider CC(=O)c1cc2cc[nH]c(=O)c2c(Nc2ccc(C3CCN(C4CC4)CC3)c(C)c2)n1
NOT MET

Is pIC50 at least 7? Consider COc1nc(-c2cc3cc[nH]c(=O)c3c(Nc3ccc(C4CCN(CCC#N)CC4)c(C)c3)n2)cnc1N
MET

Is pIC50 at least 7? Consider COc1cncc(-c2cc3cc[nH]c(=O)c3c(Nc3ccc(C4CCN(C5COC5)CC4)c(C)c3)n2)n1
NOT MET

---

target-or-test-system: Syk kinase (Homo sapiens, UniProt P43405)
Construct: purchased
protocol-text: Syk kinase inhibition, Caliper LabChip off-chip mobility-shift kinase assay
Assay type: biochemical
reported-conditions: Caliper LabChip assay; read-out: Syk Enzyme IC50
value-type: pIC50
Numbers only, as −log10 of the molar value.

Here is how some compounds turned out for pIC50.
compound=Cc1[nH]ncc1-c1ccnc(Nc2cc3ccn(CCO)c(=O)c3c(NC(C)(C)C)n2)c1 measured=6.61
compound=Cn1cc2cc(Nc3nc(Nc4c[n+]([O-])ccn4)cc4ccn(CCO)c(=O)c34)ccc2n1 measured=7.00
compound=Cc1ccnc(Nc2cc3ccn(C(C)C)c(=O)c3c(NC(C)(C)CO)n2)c1 measured=7.21

Query compound follows.
pIC50 lookup needed for N#CCn1ccc2cc(-c3cnc(N)nc3)nc(NC3CCOCC3)c2c1=O [compound 742] , thanks.
7.47

---

What IC50 was measured for each of the following?
target-or-test-system: Syk kinase (Homo sapiens)
Construct: purchased
protocol-text: Syk kinase inhibition, Caliper LabChip off-chip mobility-shift kinase assay
Format: biochemical
reported-conditions: read-out: Syk Enzyme IC50
Give bare numbers, in nM.

Here is how some compounds turned out for IC50.
compound="COc1cncc(-c2cc3cc[nH]c(=O)c3c(Nc3ccc(C4CCN(C(=O)C5CCOC5)CC4)c(C)c3)n2)n1 (centres unmarked)" value_type=IC50 units_text=nM measured=55
compound=Cc1ccnc(Nc2cc3ccn(C)c(=O)c3c(NC(C)C)n2)c1 value_type=IC50 units_text=nM measured=153
compound=Cn1ccc2cc(Nc3cnccn3)nc(Nc3cccc(S(N)(=O)=O)c3)c2c1=O value_type=IC50 units_text=nM measured=879
compound=CCn1ccc2cc(Nc3cnccn3)nc(NC[C@@H]3CC[C@](C)(O)C3)c2c1=O value_type=IC50 units_text=nM measured=172

Batch lookup, IC50 per entry.
1. Cc1ccc(-c2cc3cc[nH]c(=O)c3c(Nc3ccc(C4CNC4)cc3)n2)cn1
2. COc1ncc(-c2cc3cc[nH]c(=O)c3c(Nc3ccc(C4CNC4)cc3)n2)cn1
3. Cc1ccnc(Nc2cc3ccn(C)c(=O)c3c(Nc3ccc(C4CCN(C)CC4)cc3)n2)c1
4. Cc1ccc(Nc2cc3cc[nH]c(=O)c3c(Nc3ccc(N4CCOCC4)cc3)n2)nc1

[111, 57, 16, 3850]

---

target-or-test-system: Syk kinase (Homo sapiens, UniProt P43405)
Construct: purchased
protocol-text: Syk kinase inhibition, Caliper LabChip off-chip mobility-shift kinase assay
Assay type: biochemical
reported-conditions: Caliper LabChip assay; read-out: Syk Enzyme IC50
What IC50 was measured for each of the following?
Numbers only, in µM.

Here is how some compounds turned out for IC50.
item_smiles=COCCn1ccc2cc(Nc3cnccn3)nc(N[C@H]3CC[C@@H](O)CC3)c2c1=O measured=0.017
item_smiles=Cc1ccnc(Nc2cc3ccn(CCO)c(=O)c3c(Nc3ccc(C(=O)N4CCOCC4)c(C)c3)n2)c1 measured=0.186
item_smiles=Cn1ccc2cc(Nc3nccc(O)n3)nc(N[C@H]3CC[C@@H](O)CC3)c2c1=O measured=0.128

IC50 lookup needed for [2H][C@]1(O)CC[C@H](Nc2nc(Nc3cc(C)ccn3)cc3ccn(CC)c(=O)c23)CC1 , thanks.
0.02

---

target-or-test-system: Syk kinase (Homo sapiens, UniProt P43405)
Construct: purchased
protocol-text: Syk kinase inhibition, Caliper LabChip off-chip mobility-shift kinase assay
Format: biochemical
reported-conditions: Caliper LabChip assay; read-out: Syk Enzyme IC50
hey, just use Criterion met if measured IC50 is less than 80 nM, otherwise Criterion not met

Solved cases (5 shown):
compound="CC(C)(C)Nc1nc(Nc2cc(N3CCC(CO)CC3)ccn2)cc2ccn(CCO)c(=O)c12 [compound 847]" class_label="Criterion not met"
compound="CC(C)(C)Nc1nc(Nc2cc(OC3CCN(CCO)CC3)ncn2)cc2ccn(CCO)c(=O)c12 [compound 646]" class_label="Criterion met"
compound="Cc1ccnc(Nc2cc3ccn(CCO)c(=O)c3c(NC3CCS(=O)(=O)C3)n2)c1 (centres unmarked) [compound 974]" class_label="Criterion not met"
compound="CCn1ccc2cc(Nc3cnccn3)nc(NCCC(F)(F)F)c2c1=O [compound 781]" class_label="Criterion not met"
compound="Cn1ccc2cc(Nc3nccc(O)n3)nc(Nc3ccc(C(N)=O)cc3)c2c1=O [compound 804]" class_label="Criterion not met"

IC50 under 80 nM? Item: CC(=O)c1ccnc(Nc2cc3ccn(CCO)c(=O)c3c(NC(C)(C)C)n2)c1 [compound 684]
Criterion met

IC50 under 80 nM? Item: CCn1ccc2cc(Nc3cc(C)ccn3)nc(N[C@@H]3CC[C@@H](O)C3)c2c1=O [compound 1040]
Criterion not met
